Data credit: ChEMBL document CHEMBL1127967

# method_description: pKa value of the compound
# Assay type: physicochemical
Output Satisfied for pKa not less than 7; output Not satisfied otherwise.

>>> class_label("CC1CCN(C(=O)[C@H](CCCNc2cnccn2)NS(=O)(=O)c2ccc3ccccc3c2)CC1")
"Not satisfied"
>>> class_label("CC1CCN(C(=O)[C@H](CCCNc2ncccn2)NS(=O)(=O)c2ccc3ccccc3c2)CC1")
"Not satisfied"
>>> class_label("COc1ccc2ccc(S(=O)(=O)N[C@@H](CCCNc3cccnn3)C(=O)N3CCC(C)CC3)cc2c1")
"Not satisfied"
>>> class_label("CC1CNc2c(cccc2S(=O)(=O)NC(CCCNC(=N)N)C(=O)N2CC[C@@H](C)C[C@@H]2C(=O)O)C1 (single isomer, unassigned) [ARGATROBAN]")
"Satisfied"
>>> class_label("CC1CCN(C(=O)[C@H](CCCNc2cccnn2)NS(=O)(=O)c2ccc3ccccc3c2)CC1")
"Not satisfied"
>>> class_label("CC1CCN(C(=O)[C@H](CCCN=C(N)N)NS(=O)(=O)c2ccc3ccccc3c2)CC1")
"Satisfied"
